Molecular target: Solute carrier organic anion transporter family member 2B1 (Homo sapiens, UniProt O94956)
Sequence (O94956 whole entry): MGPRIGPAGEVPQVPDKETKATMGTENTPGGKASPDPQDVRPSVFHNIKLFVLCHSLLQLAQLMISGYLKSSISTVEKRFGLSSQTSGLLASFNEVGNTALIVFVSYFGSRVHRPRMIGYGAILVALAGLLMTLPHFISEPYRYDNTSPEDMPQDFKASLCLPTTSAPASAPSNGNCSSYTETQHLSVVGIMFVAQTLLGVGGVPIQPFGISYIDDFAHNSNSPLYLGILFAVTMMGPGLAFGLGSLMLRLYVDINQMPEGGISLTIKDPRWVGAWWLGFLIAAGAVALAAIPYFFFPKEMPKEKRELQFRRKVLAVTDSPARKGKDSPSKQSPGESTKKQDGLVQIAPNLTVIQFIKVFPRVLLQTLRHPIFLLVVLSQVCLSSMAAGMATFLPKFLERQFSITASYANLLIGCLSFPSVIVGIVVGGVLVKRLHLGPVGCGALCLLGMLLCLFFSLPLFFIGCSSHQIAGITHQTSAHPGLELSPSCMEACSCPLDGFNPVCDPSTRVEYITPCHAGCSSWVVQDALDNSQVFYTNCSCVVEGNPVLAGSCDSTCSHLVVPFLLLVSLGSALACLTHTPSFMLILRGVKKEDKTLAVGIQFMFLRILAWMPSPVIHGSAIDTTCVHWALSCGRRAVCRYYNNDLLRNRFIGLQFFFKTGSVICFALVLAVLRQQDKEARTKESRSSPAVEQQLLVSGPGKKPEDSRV
Experiment: Inhibition of human liver OATP2B1 expressed in HEK293 Flp-In cells assessed as reduction in [3H]E3S uptake at 20 uM incubated for 5 mins by scintillation counting
Conditions: hek293, 5 min
Property: INH (%)
Numbers only, in %.

CN(C)C(=O)CCSC(SCCC(=O)O)c1cccc(/C=C/c2ccc3ccc(Cl)cc3n2)c1 (stereo not drawn): 75.2
Fc1ccc([C@@H]2CCNC[C@H]2COc2ccc3c(c2)OCO3)cc1: 37.5
O=C1CN(/N=C/c2ccc([N+](=O)[O-])o2)C(=O)N1: 23.1
CC(C)OC(=O)C(C)(C)Oc1ccc(C(=O)c2ccc(Cl)cc2)cc1 [FENOFIBRATE]: 34.2
COc1ccc(CCN(C)CCCC(C#N)(c2ccc(OC)c(OC)c2)C(C)C)cc1OC (stereo not drawn): -62.6

Each of the following entries comes with a recorded value; kindly state INH for each.
1. C[C@]12C=CC(=O)C=C1CC[C@@H]1[C@@H]2[C@@H](O)C[C@@]2(C)[C@H]1CC[C@]2(O)C(=O)CO
2. Cc1cn([C@H]2C[C@H](N=[N+]=[N-])[C@@H](CO)O2)c(=O)[nH]c1=O

Response given:
[27.6, 4.7]

###

For each entry below, report its INH value.
Target: Solute carrier organic anion transporter family member 1B3 (Homo sapiens, UniProt Q9NPD5)
Sequence (Q9NPD5 whole entry): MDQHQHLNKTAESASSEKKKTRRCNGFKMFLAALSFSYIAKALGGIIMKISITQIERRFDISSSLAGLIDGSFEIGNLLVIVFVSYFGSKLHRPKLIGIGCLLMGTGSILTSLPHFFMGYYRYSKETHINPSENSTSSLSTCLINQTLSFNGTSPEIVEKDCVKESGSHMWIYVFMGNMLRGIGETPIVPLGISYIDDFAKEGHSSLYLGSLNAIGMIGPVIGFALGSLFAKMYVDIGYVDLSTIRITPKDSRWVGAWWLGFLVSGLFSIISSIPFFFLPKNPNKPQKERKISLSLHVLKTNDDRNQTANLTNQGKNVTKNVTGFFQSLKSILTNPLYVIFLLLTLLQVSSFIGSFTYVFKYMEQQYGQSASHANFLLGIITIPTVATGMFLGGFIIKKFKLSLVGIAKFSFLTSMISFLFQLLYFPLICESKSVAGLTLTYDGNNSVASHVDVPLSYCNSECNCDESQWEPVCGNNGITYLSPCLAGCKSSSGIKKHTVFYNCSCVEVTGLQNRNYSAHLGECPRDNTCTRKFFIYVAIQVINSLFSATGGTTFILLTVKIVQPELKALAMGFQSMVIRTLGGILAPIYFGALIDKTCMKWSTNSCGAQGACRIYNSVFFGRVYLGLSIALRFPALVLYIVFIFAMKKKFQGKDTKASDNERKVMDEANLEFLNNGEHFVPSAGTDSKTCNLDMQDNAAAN
Experiment: Inhibition of human liver OATP1B3 expressed in HEK293 Flp-In cells assessed as reduction in [3H]E17-betaG uptake at 20 uM incubated for 5 mins by scintillation counting
Conditions: hek293, 5 min
*1 amine or outer side, *2 acyl side, *3 side chain or, on linkers, in order; H or OH if unused. Where a SMILES comes first, the peptide text is derived from it. Bridges are numbered along the chain shown (N, C = ends). [ ]: non-standard residue; d: D form. Trp(2-yl) = O=C([C@H](Cc1c([*:3])[nH]c2ccccc12)N[*:1])[*:2]; Leu(4R-OH,5-OH) = C[C@](O)(CO)C[C@H](N)C(=O)O; cisHyp = O=C(O)[C@@H]1C[C@H](O)CN1
Numbers only, in %.

Each of the following entries comes with a recorded value; kindly state INH for each.
1. [H]/N=C(/N)N/C(=N/[H])NCCc1ccccc1
2. C=C[C@H]1C[N+]2(C)CC[C@H]1C[C@@H]2[C@@H](O)c1ccnc2ccc(OC)cc12
3. COc1cccc2c1C(=O)c1c(O)c3c(c(O)c1C2=O)C[C@@](O)(C(=O)CO)C[C@@H]3O[C@H]1C[C@H](N)[C@H](O)[C@H](C)O1
4. O=c1c(O)c(-c2ccc(O)cc2O)oc2cc(O)cc(O)c12
5. C[C@H]1O[C@H](O[C@H]2[C@H](O)[C@@H](O)[C@@H](O[C@H]3[C@H](O)[C@@H](O)C(O)O[C@@H]3CO)O[C@@H]2CO)[C@H](O)[C@@H](O)[C@@H]1N[C@H]1C=C(CO)[C@@H](O)[C@H](O)[C@H]1O (some centres not stated)
6. C/C=C/C[C@@H](C)C(=O)[C@H]1C(=O)N[C@@H](C(C)C)C(=O)N(C)CC(=O)N(C)[C@@H](CC(C)C)C(=O)N[C@@H](C(C)C)C(=O)N(C)[C@@H](CC(C)C)C(=O)N[C@@H](C)C(=O)N[C@H](C)C(=O)N(C)[C@@H](CC(C)C)C(=O)N(C)[C@@H](CC(C)C)C(=O)N(C)[C@@H](C(C)C)C(=O)N1C
7. Cc1cccc(C)c1OCC(=O)N[C@@H](Cc1ccccc1)[C@@H](O)C[C@H](Cc1ccccc1)NC(=O)[C@H](C(C)C)N1CCCNC1=O

Response given:
1: -2.3; 2: 21; 3: 26.6; 4: 78.5; 5: 17.7; 6: 93.9; 7: 84.6

Each of the following entries comes with a recorded value; kindly state INH for each.
1. C[C@]12CC[C@@H]3c4ccc(O)cc4CC[C@H]3[C@@H]1CC[C@@H]2O
2. CC(=O)CC(c1ccccc1)c1c(O)c2ccccc2oc1=O (configuration not stated)
3. COc1ccc2c(c[n+](C)c3c4cc5c(cc4ccc23)OCO5)c1OC
4. C[C@@H]1NC(=O)[C@H](C[C@@](C)(O)CO)NC(=O)[C@@H]2Cc3c([nH]c4ccccc34)SC[C@H](NC(=O)[C@@H]([C@H](C)O)NC1=O)C(=O)N1C[C@@H](O)C[C@H]1C(=O)N[C@@H](C)C(=O)N2 [PHALLOIDIN] (cyclo(A[dT]C[cisHyp]A[Trp(2-yl)][Leu(4R-OH,5-OH)]); thioether 3-6)
5. O=C1CN(/N=C/c2ccc([N+](=O)[O-])o2)C(=O)N1

Response given:
39.3
-3.2
24.9
36.2
-1.5

###

For each entry below, report its INH value.
Target: Solute carrier organic anion transporter family member 1B3 (Homo sapiens)
Test: Inhibition of human liver OATP1B3 expressed in HEK293 Flp-In cells assessed as reduction in [3H]E17-betaG uptake at 20 uM incubated for 5 mins by scintillation counting
Settings: hek293, 5 min
Give bare numbers, in %.

Each of the following entries comes with a recorded value; kindly state INH for each.
1. CN(C)CCCN1c2ccccc2CCc2ccccc21
2. COc1ccc2[nH]c([S+]([O-])Cc3ncc(C)c(OC)c3C)nc2c1 (centres undefined)
3. COCCc1ccc(OCC(O)CNC(C)C)cc1 (centres undefined)
4. CC(C)(C)NC(=O)[C@@H]1CN(Cc2cccnc2)CCN1C[C@@H](O)C[C@@H](Cc1ccccc1)C(=O)N[C@H]1c2ccccc2C[C@H]1O.O
5. CNCCC(Oc1ccc(C(F)(F)F)cc1)c1ccccc1 (centres undefined)
6. CC(C)CN(C[C@@H](O)[C@H](Cc1ccccc1)NC(=O)O[C@H]1CCOC1)S(=O)(=O)c1ccc(N)cc1
7. Nc1nc(=O)n([C@@H]2CS[C@H](CO)O2)cc1F
8. COc1cc2nc(N3CCN(C(=O)C4COc5ccccc5O4)CC3)nc(N)c2cc1OC (centres undefined)

Response given:
-2.4
29.5
19.8
18.1
14.3
16.3
17.1
-17.3

Challenge: For COC(=O)C1=C(C)NC(C)=C(C(=O)OC(C)C)C1c1cccc2nonc12 (centres undefined) , what is its reported INH?
Response given: 7.7

###

Target: Solute carrier organic anion transporter family member 1B1 (Homo sapiens, UniProt Q9Y6L6)
Sequence (Q9Y6L6 whole entry): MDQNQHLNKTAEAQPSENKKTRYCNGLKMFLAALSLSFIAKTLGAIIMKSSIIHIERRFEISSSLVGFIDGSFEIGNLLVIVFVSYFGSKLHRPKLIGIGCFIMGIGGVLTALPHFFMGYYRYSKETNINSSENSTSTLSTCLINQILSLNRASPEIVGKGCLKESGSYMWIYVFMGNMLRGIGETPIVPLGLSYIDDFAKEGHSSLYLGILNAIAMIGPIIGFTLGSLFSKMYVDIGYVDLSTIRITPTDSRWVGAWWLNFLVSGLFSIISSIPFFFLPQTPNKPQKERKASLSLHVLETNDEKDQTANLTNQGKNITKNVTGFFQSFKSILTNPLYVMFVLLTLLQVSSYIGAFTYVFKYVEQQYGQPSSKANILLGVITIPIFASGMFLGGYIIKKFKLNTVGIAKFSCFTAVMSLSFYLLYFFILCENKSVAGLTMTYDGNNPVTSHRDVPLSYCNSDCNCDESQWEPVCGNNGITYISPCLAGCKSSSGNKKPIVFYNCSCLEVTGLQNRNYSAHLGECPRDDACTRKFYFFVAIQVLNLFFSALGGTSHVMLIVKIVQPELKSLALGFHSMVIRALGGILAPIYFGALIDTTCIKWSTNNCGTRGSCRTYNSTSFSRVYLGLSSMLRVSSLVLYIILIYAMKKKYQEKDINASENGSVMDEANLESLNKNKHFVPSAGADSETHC
Experiment: Inhibition of human liver OATP1B1 expressed in HEK293 Flp-In cells assessed as reduction in E17-betaG uptake at 20 uM by scintillation counting
Details: hek293, 20 µM
For each entry below, report its INH value.
One number for each entry, in %.

COc1ccc2[nH]c([S+]([O-])Cc3ncc(C)c(OC)c3C)nc2c1 (centres undefined) [OMEPRAZOLE]: 15.9
CC(NC(C)(C)C)C(=O)c1cccc(Cl)c1 (centres undefined) [BUPROPION]: 8.5
O=c1c(O)c(-c2ccc(O)c(O)c2)oc2cc(O)cc(O)c12 [QUERCETIN]: 77

Challenge: For Nc1ccc(C(=O)NCC(=O)O)cc1 [AMINOHIPPURIC ACID] , what is its reported INH?
Response given: 30.1

###

Molecular target: Solute carrier organic anion transporter family member 2B1 (Homo sapiens)
Experiment: Inhibition of human liver OATP2B1 expressed in HEK293 Flp-In cells assessed as reduction in [3H]E3S uptake at 20 uM incubated for 5 mins by scintillation counting
Conditions: hek293, 5 min
For each entry below, report its INH value.
Numbers only, in %.

Example entries and their recorded answers appear below.
S=C=NCCc1ccccc1 [PHENETHYLISOTHIOCYANATE]: -32
COc1ccc2[nH]c([S+]([O-])Cc3ncc(C)c(OC)c3C)nc2c1 (stereo not drawn): 11.3

Challenge: Entry C[n+]1ccc(-c2ccccc2)cc1 , system Solute carrier organic anion transporter family member 2B1 (Homo sapiens): what INH was measured?
Response given: 2.4

###

Biological target: Solute carrier organic anion transporter family member 1B3 (Homo sapiens, UniProt Q9NPD5)
Test: Inhibition of human liver OATP1B3 expressed in HEK293 Flp-In cells assessed as reduction in [3H]E17-betaG uptake at 20 uM incubated for 5 mins by scintillation counting
Conditions: hek293, 5 min
For each entry below, report its INH value.
Give bare numbers, in %.

C[n+]1ccc(-c2ccccc2)cc1: 10.8
CC(C)c1nc(N(C)S(C)(=O)=O)nc(-c2ccc(F)cc2)c1/C=C/[C@@H](O)C[C@@H](O)CC(=O)O [ROSUVASTATIN]: 55.4
CC/C(=C(\c1ccccc1)c1ccc(OCCN(C)C)cc1)c1ccccc1 [TAMOXIFEN]: 28.5
Cc1nnc2n1-c1ccc(Cl)cc1C(c1ccccc1Cl)=NC2 [TRIAZOLAM]: 18.7
CC[C@H]1OC(=O)[C@H](C)[C@@H](O[C@H]2C[C@@](C)(OC)[C@@H](O)[C@H](C)O2)[C@H](C)[C@@H](O[C@@H]2O[C@H](C)C[C@H](N(C)C)[C@H]2O)[C@](C)(OC)C[C@@H](C)C(=O)[C@H](C)[C@@H](O)[C@]1(C)O [CLARITHROMYCIN]: 53.8
CN[C@@H]1C[C@H](N)[C@@H](O)[C@H](O[C@H]2O[C@H](CO)[C@H](O)[C@@H]3O[C@@]4(O[C@@H]23)O[C@H]([C@H](N)CO)[C@H](O)[C@H](O)[C@H]4O)[C@H]1O [HYGROMYCIN]: -4.2

Each of the following entries comes with a recorded value; kindly state INH for each.
1. Clc1ccccc1C(c1ccccc1)(c1ccccc1)n1ccnc1 [CLOTRIMAZOLE]
2. Cc1nc2c([nH]1)c(=O)n(C)c(=O)n2Cc1ccco1 [FURAFYLLINE]
3. COC(=O)N[C@H](C(=O)N[C@@H](Cc1ccccc1)[C@@H](O)CN(Cc1ccc(-c2ccccn2)cc1)NC(=O)[C@@H](NC(=O)OC)C(C)(C)C)C(C)(C)C [ATAZANAVIR]
4. CCc1ccc(CCOc2ccc(CC3SC(=O)NC3=O)cc2)nc1 (configuration not stated) [PIOGLITAZONE]
5. CC(NCCC(c1ccccc1)c1ccccc1)c1ccccc1 (configuration not stated) [FENDILINE]
6. Clc1ccccc1CN1CCc2sccc2C1 [TICLOPIDINE]
7. CC(=O)N1CCN(c2ccc(OCC3COC(Cn4ccnc4)(c4ccc(Cl)cc4Cl)O3)cc2)CC1 (configuration not stated) [KETOCONAZOLE]
8. CC[C@H](C)C(=O)O[C@H]1C[C@@H](C)C=C2C=C[C@H](C)[C@H](CC[C@@H]3C[C@@H](O)CC(=O)O3)[C@H]21 [LOVASTATIN]

Response given:
1. -120.4
2. 0.7
3. 92.6
4. 5.6
5. 20.4
6. 0.2
7. 24.7
8. 21.3

Each of the following entries comes with a recorded value; kindly state INH for each.
1. CC(C)NCC(O)COc1cccc2[nH]ccc12 (configuration not stated) [PINDOLOL]
2. CCC(C)n1ncn(-c2ccc(N3CCN(c4ccc(OCC5COC(Cn6cncn6)(c6ccc(Cl)cc6Cl)O5)cc4)CC3)cc2)c1=O (configuration not stated) [ITRACONAZOLE]
3. CC(C)C[C@H](NC(=O)[C@@H](O)[C@H](N)Cc1ccccc1)C(=O)O [UBENIMEX]

Response given:
1: 24.5; 2: -2.3; 3: 31.8

Where do the numbers come from? From ChEMBL document CHEMBL2163248.
